Target: TAS1R2 (Homo sapiens)
Construct: TAS1R2/TAS1R3 heterodimer; with TAS1R3 (human)
Sequence (Q8TE23 20-839): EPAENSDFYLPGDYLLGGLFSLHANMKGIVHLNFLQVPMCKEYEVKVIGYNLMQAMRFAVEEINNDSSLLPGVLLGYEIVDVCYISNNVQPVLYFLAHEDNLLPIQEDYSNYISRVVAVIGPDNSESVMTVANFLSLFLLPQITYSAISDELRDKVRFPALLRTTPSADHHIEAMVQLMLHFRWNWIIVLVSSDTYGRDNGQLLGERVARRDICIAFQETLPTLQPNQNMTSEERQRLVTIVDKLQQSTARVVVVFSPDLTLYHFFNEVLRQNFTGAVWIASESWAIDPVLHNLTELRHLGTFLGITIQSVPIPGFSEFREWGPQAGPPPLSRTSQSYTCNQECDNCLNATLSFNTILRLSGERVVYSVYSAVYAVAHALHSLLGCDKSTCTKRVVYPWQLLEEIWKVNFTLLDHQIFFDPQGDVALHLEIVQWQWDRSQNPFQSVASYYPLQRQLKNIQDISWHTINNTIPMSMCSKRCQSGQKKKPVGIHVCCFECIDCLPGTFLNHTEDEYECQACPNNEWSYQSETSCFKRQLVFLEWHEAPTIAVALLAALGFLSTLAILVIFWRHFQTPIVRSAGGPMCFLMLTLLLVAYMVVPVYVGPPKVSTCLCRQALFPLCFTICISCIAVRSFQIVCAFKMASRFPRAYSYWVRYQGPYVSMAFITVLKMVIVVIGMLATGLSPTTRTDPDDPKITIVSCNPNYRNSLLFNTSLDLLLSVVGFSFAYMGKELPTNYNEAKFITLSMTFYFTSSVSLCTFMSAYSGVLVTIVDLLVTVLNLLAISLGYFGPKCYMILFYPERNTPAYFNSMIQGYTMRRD
Sequence (Q7RTX0 21-852 partner): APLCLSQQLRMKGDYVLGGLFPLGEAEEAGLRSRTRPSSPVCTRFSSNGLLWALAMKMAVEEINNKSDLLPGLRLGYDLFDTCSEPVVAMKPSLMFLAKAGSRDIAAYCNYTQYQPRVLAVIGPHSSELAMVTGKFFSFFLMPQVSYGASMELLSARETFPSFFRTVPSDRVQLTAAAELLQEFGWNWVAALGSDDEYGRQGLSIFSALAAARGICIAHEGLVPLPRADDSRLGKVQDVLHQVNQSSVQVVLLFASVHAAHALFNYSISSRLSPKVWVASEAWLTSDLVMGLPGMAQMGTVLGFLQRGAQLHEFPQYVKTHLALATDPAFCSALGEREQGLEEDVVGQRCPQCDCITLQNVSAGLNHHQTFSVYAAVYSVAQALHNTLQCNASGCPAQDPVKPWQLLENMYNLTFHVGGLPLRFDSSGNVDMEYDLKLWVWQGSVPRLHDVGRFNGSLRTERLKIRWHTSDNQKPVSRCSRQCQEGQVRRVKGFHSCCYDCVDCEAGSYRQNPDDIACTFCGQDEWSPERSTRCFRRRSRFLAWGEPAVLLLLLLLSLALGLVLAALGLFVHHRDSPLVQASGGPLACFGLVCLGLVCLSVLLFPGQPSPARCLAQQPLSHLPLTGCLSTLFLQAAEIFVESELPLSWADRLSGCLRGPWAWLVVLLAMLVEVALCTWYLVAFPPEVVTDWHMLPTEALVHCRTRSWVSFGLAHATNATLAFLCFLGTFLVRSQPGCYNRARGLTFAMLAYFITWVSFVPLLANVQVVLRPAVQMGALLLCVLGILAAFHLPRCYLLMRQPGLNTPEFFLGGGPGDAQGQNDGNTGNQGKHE
Assay: cell-based calcium imaging of the expressed human/human receptor
READOUT LABEL: EC50
# do not omit the unit; it follows the number

Qu. I am curious: what EC50 value has been reported for COC(=O)[C@H](Cc1ccccc1)NC(=O)[C@H](CC(=O)O)NCCC(C)(C)C [neotame] ?
Ans. 2700 nM

Value source: paper PMC12484785
